target: T1, recombinant human LTBP1-proTGFβ1 complex (Homo sapiens, UniProt P01137); assay: Octet (Biolayer Interferometry) in vitro kinetic binding; settings: in M
T1 construct: made in house; host or cells: Expi293F cells, transient co-transfection
T1 sequence (P01137 30-390): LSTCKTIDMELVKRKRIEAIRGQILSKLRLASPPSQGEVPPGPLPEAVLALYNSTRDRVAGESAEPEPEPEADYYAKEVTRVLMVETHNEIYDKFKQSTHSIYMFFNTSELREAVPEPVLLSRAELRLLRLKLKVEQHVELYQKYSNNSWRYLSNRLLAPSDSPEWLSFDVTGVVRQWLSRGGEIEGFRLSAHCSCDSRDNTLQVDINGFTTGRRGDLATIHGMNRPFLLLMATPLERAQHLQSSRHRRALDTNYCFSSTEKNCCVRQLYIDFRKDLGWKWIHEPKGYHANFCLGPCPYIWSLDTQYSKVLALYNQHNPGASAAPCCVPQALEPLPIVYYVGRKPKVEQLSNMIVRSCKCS
T1 sequence (Q14766 873-1507 partner): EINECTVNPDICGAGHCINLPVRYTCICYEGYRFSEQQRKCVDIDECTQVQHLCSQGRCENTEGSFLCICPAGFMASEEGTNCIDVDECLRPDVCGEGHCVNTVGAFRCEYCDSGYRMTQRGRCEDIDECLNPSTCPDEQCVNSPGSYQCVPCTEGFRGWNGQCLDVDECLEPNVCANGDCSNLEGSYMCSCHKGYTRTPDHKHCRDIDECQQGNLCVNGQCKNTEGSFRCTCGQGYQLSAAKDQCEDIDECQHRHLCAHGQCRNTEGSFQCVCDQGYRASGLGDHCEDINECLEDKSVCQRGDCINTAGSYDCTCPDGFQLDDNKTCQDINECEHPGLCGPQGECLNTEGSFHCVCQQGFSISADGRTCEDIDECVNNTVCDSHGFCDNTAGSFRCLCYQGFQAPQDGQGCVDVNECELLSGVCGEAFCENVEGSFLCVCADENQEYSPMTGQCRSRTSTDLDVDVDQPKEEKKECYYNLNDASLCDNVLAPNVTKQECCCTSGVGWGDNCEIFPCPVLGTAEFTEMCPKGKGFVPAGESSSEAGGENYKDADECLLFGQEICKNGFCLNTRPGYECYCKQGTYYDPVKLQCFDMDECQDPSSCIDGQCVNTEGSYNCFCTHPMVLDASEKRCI
Assay Endpoint: (B) hLTBP1, Matrix-associated proTGFb1 (KD)
When you answer, write just the number.

Examples with their reported (B) hLTBP1, Matrix-associated proTGFb1 (KD) follow.
{"Molecule": "Ab15: monoclonal antibody; VH SEQ ID NO: 245, VL SEQ ID NO: 241 (antibody, V domains shown) VH: EVQLVESGGGVVQPGRSLRLSCAASGFTFSDYAMVWVRQAPGKGLEWVSAISGSGFTTYYADSVKGRFTISRDNSKNTLYLQMNSLRAEDTAVYYCARVSSGHWDFDYWGQGTLVTVSS VL: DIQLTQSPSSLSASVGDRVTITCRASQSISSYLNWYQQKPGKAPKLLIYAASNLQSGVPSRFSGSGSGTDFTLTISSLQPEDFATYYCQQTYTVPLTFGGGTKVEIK", "Measured Result": "1.50E−10"}
{"Molecule": "Ab32: monoclonal antibody; VH SEQ ID NO: 140, VL SEQ ID NO: 15 (antibody, V domains shown) VH: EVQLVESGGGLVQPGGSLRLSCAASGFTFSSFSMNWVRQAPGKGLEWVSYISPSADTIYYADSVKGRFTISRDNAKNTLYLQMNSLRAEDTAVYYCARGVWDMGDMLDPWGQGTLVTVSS VL: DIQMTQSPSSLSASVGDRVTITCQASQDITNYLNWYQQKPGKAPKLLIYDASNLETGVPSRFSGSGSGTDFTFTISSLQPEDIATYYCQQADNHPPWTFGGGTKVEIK", "Measured Result": "2.69E−10"}
{"Molecule": "Ab17: monoclonal antibody; VH SEQ ID NO: 248, VL SEQ ID NO: 241 (antibody, V domains shown) VH: EVQLLESGGGVVQPGGSLRLSCAASGFTFSSFAMTWVRQAPGKGLEWVSAISGSGAATYFADSVKGRFTISRDNSKNTLYLQMNSLRAEDTAVYYCARVSSGHWDFDYWGQGTLVTVSS VL: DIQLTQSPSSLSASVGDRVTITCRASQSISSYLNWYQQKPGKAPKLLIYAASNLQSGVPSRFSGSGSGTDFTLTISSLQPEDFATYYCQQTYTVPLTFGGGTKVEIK", "Measured Result": "1.74E−10"}
{"Molecule": "Ab26: monoclonal antibody; VH SEQ ID NO: 134, VL SEQ ID NO: 15 (antibody, V domains shown) VH: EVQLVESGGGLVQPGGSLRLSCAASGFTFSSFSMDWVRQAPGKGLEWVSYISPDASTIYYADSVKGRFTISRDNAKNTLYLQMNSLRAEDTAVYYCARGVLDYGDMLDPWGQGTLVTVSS VL: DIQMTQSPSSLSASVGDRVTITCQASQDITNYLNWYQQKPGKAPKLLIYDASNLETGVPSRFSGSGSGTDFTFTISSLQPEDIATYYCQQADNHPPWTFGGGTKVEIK", "Measured Result": "2.21E−10"}
{"Molecule": "Ab16: monoclonal antibody; VH SEQ ID NO: 247, VL SEQ ID NO: 241 (antibody, V domains shown) VH: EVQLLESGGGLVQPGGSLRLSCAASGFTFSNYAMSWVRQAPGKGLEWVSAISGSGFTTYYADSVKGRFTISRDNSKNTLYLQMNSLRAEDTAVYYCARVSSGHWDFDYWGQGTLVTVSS VL: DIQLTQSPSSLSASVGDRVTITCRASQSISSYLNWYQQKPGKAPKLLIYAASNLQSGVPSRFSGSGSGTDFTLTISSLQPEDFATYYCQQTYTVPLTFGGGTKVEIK", "Measured Result": "1.81E−10"}

# input molecule: Ab20: monoclonal antibody; VH SEQ ID NO: 251, VL SEQ ID NO: 241 (antibody, V domains shown) VH: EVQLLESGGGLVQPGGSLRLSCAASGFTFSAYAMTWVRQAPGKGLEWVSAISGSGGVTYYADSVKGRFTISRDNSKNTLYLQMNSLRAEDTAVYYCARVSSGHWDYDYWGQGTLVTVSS VL: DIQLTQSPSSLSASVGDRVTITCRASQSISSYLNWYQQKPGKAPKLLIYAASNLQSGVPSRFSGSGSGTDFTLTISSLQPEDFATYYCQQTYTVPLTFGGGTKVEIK ; wanted: its (B) hLTBP1, Matrix-associated proTGFb1 (KD)
1.92E−10

# repeat for Ab30: monoclonal antibody; VH SEQ ID NO: 138, VL SEQ ID NO: 15 (antibody, V domains shown) VH: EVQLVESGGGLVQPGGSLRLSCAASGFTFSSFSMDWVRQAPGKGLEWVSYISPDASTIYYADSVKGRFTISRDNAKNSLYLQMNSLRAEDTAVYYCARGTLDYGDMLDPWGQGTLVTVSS VL: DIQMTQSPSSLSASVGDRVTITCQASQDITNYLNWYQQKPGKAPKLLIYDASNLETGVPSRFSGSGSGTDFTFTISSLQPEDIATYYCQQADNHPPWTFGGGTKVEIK
3.32E−10

And for Ab14: monoclonal antibody; VH SEQ ID NO: 244, VL SEQ ID NO: 243 (antibody, V domains shown) VH: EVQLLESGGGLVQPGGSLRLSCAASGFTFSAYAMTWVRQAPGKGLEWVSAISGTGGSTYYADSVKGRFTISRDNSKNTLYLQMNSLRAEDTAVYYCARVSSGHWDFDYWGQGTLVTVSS VL: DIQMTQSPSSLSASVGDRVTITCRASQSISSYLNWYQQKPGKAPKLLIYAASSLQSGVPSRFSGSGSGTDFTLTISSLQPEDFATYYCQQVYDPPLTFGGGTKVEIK ?
3.36E−10

Now try Ab24: monoclonal antibody; VH SEQ ID NO: 132, VL SEQ ID NO: 15 (antibody, V domains shown) VH: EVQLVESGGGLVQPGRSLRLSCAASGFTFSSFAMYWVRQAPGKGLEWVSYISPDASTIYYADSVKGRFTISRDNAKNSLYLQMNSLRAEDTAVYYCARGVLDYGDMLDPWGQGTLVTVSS VL: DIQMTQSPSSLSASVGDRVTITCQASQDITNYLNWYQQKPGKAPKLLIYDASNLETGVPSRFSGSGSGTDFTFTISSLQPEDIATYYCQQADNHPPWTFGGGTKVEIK .
2.46E−10

All figures here come from patent US11130803B2.
